In this section we review reported protein stability index values for a set of variants.
B1: APBB1IP (parent)
chain: PPEPLSQVSMWDQRWQDHQPLLPI

# Variants of: B1
# assay-details: protein stability index of a GFP-peptide fusion (GPS, HEK-293T) (PSI 1-6); higher = more stable;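 note: lentivirally expressed fusions sorted by FACS into six bins by GFP to DsRed ratio, PSI derived from sequencing read proportions per bin multiplied by bin number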
# recorded-conditions: c terminus: a fixed tail appended
Form: value (number only, do not type unit).

Some entries whose results are on file:
- variant-name: "Q13R"
  protein stability index: 2.6
- variant-name: "P2E"
  protein stability index: 3.02
- variant-name: "L21I"
  protein stability index: 2.58
- variant-name: "Q19M"
  protein stability index: 2.72

Kindly note the recorded protein stability index for `P20L` , which is 2.61

Kindly note the recorded protein stability index for `P4D` , which is 3.56

Kindly note the recorded protein stability index for `H18Q` , which is 3.01

Kindly note the recorded protein stability index for `D12T` , which is 3.07

Kindly note the recorded protein stability index for `Q7N` , which is 3.14

Kindly note the recorded protein stability index for `P20V` , which is 2.91

Kindly note the recorded protein stability index for `Q7Y` , which is 2.27
